Biological target: T1, human PD-1 ECD/Fc fusion protein (human)
T1 construct: also called huPD-1/Fc; HuPD-1 ECD/Fc
Assay: RBA ELISA on huPD-1/Fc; competitor biotin-huPD-L2/Fc
reported endpoint: TOP inhibition (%)

A selection of reference data follows.
[in] Please look up its TOP inhibition (%): mAb713 (antibody, V domains shown, murine hybridoma anti-PD-1 mAb) VH: EVKLVESGGGLVKPGGSLELSCAASGFTSSDYGMHWVRQAPEKGLEWVAYISSGSYTIYYADTVKGRFTISRDNAKNTLFLQMTSLRSEDTAMYYCAKRGGSSHVNVMDYWGQGTSVTVSS VL: DIQMTQSSSYLSVSLGGRVTITCKASDHINNWLAWYQQKPGNAPRLLISGATSLETGVPSRFSGSGSGKDYTLSITSLQTEDVATYYCQQYWSPPYTFGGGTKLEIK
[out] 93.5%

[in] TOP inhibition (%) lookup needed for mAb709 (antibody, V domains shown, murine hybridoma anti-PD-1 mAb) VH: EVKLVESGGGLVKPGGSLKLSCAASGFTFSFYTMSWVRQTPEKRLEWVATISGGGRDTYYPDSVKGRFTISRDNAKNTLYLHMSSLRSEDTALYYCAGQGGNYLFAYWGQGTLVTVSA VL: DIVMTQSHKFMSTSVGDSVTITCKASQDVNTVVAWYQQKPGQSLKVLISWASTRHTGVPARFTGSGSGTDYTLTISSVQAEDLALYYCQQHYTTPYTFGGGTQLEIK , thanks.
[out] 93.7%

// next item, TOP inhibition (%) requested
[in] Consider the binder mAb719 (antibody, V domains shown, murine hybridoma anti-PD-1 mAb) VH: EVKLVESGGGLVKPGGSLKLSCTASGFSFSSHLMSWVRQTPEKRLEWVAAISGGGADTYYPDSVKGRFTISRDNAKNTLYLQMRSLRSEDTALYYCTRQILAFDSWGQGTTLTVSS VL: DIQMNQSPSSLSVSLGDTITITCHASQNIYVWLNWYQQKPGNIPKLLIYKASNLHTGVPSRFSGGGSGTGFTLTISSLQPEDIATYYCQQGQSYPWTFGGGTKLEIK and give its measured TOP inhibition (%).
[out] 95.2%
